- protocol.description: PK part of PK/PD study in MDA-MB-436 subcutaneous xenograft model: plasma and tumor concentration
- Type: in vivo, BALB/c nude mice
- details: female, BALB/c nude, mouse, plasma; single oral 0.3 mg/kg, 24 h; read-out: Mean plasma concentration
measured.attribute: concentration at 24 h
Kindly report the value followed by its unit.

# concentration at 24 h of CCc1cc2ncc(CN3CCN(c4ccc(C(=O)NC)nc4)CC3)cc2[nH]c1=O [AZD5305, reference compound] = 102 ng/mL

* * *

Here the recorded Cmax is given for each entry.
- protocol.description: Pharmacokinetic assay in Balb/C mice
- details: male, mouse, plasma, po, 1 mg/kg
Supply the numeric figure in ng/mL, leaving out any unit text.

Reference set, count: 3
[
  {
    "chemical.structure": "CCc1cc2ncc(CN3CC=C(c4ccc(C(=O)NC)nc4F)CC3)cc2[nH]c1=O",
    "Cmax (ng/mL)": 6550
  },
  {
    "chemical.structure": "CCc1cc2ncc(CN3CC=C(c4ccc(C(=O)NC)nc4)CC3)cc2[nH]c1=O",
    "Cmax (ng/mL)": 9930
  },
  {
    "chemical.structure": "CCc1cc2ncc(CN3CCN(c4cnc5c(NC)nccc5c4)CC3)cc2[nH]c1=O",
    "Cmax (ng/mL)": 1570
  }
]

Here is another compound to look at.
Entry CCc1cc2ncc(CN3CC=C(c4ccc(C(=O)NC5CC5)nc4)CC3)cc2[nH]c1=O , Cmax reported as 8270

* * *

- protocol.description: PK part of PK/PD study in MDA-MB-436 subcutaneous xenograft model: plasma and tumor concentration
- Type: in vivo, BALB/c nude mice
- details: female, BALB/c nude, mouse, plasma; single oral 0.3 mg/kg, 16 h; read-out: Mean plasma concentration
measured.attribute: concentration at 16 h (ng/mL)
Numbers only here, please. The scale is ng/mL.

In plain terms, CCc1cc2ncc(CN3CCN(c4ccc(C(=O)NC)nc4)CC3)cc2[nH]c1=O [AZD5305, reference compound] has a documented concentration at 16 h of 252

* * *

- tested.on: PARP1 enzyme (Homo sapiens (Human), UniProt P09874)
- Sequence (P09874 whole entry): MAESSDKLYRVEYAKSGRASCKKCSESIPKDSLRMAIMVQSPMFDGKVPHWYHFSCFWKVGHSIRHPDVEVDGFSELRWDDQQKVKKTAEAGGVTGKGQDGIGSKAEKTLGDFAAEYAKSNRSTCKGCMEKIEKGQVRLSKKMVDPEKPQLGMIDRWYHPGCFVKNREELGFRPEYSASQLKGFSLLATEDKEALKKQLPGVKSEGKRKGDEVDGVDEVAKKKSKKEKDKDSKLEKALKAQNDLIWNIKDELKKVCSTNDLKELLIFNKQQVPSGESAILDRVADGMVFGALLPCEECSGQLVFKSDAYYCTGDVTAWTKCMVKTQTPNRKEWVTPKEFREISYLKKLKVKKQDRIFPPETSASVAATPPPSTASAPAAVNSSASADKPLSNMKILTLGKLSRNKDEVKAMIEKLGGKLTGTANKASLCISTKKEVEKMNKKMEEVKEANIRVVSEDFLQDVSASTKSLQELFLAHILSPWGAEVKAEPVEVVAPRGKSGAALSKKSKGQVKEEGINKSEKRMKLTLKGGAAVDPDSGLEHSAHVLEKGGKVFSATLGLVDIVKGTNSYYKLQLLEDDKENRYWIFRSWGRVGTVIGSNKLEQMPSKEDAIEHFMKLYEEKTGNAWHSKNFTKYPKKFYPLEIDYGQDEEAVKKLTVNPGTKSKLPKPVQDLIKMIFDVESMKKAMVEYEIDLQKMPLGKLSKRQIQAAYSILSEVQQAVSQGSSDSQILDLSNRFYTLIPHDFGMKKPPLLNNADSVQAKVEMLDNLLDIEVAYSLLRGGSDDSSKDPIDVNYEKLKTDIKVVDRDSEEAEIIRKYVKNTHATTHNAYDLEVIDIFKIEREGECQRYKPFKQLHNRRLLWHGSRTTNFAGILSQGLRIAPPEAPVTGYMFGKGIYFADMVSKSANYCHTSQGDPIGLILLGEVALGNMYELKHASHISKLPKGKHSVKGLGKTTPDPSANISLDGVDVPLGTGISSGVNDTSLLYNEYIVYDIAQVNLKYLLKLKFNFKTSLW
measured.attribute: IC50 (nM)
Dear colleague, please return just the value in nM, with no unit written.

Worked cases, answers included:
[
  {
    "molecule": "CCc1cc2ncc(CN3CC=C(c4ccc(C(=O)NC)c(F)c4)CC3)cc2[nH]c1=O [Example 33]",
    "display.unit": "nM",
    "IC50": 0.91
  },
  {
    "molecule": "CCc1cc2ncc(CN3CC=C(c4ccc(C(=O)N[C@H]5CCOC5)nc4)CC3)cc2[nH]c1=O [Example 31]",
    "display.unit": "nM",
    "IC50": 1
  },
  {
    "molecule": "CCc1cc2ncc(CN3CC=C(c4ccc(C(=O)NC5(C#N)CC5)nc4)CC3)cc2[nH]c1=O [Example 59]",
    "display.unit": "nM",
    "IC50": 0.8
  }
]

Log: PARP1 enzyme (Homo sapiens (Human), UniProt P09874), molecule CCc1cc2ncc(C(C)N3CC=C(c4ccc(C(=O)NC)nc4)CC3)cc2[nH]c1=O (centres unmarked) [Example 93] , IC50 = 2.1

Param item: CNC(=O)c1ccc(C2=CCN(Cc3cnc4cc(C5CC5)c(=O)[nH]c4c3)CC2)cn1 [Example 45] ; param system: PARP1 enzyme (Homo sapiens (Human), UniProt P09874); output IC50: 0.8

Hey, PARP1 enzyme (Homo sapiens (Human), UniProt P09874) data for CCc1cc2ncc(CN3CC=C(c4ccc(C(=O)NC)nc4)CC3)cc2[nH]c1=O [Example 1] : IC50 came out at 0.93

Case CCc1cc2ncc(CN3CC=C(c4ccc(C(=O)NCC#N)nc4)CC3)cc2[nH]c1=O [Example 58] , PARP1 enzyme (Homo sapiens (Human), UniProt P09874), IC50 recorded as 0.9

Bench note, PARP1 enzyme (Homo sapiens (Human), UniProt P09874): entry CCc1cc2ncc(CN3CC=C(c4ccc(C(=O)NC#N)nc4)CC3)cc2[nH]c1=O [Example 57] , its IC50 = 2.8

* * *

- tested.on: PARP1 enzyme (Homo sapiens (Human), UniProt P09874)
Reported IC50 is given for each of the following compounds.
Report the value in nM with no unit label.

# count of solved cases: 2
[
  {
    "compound": "CNC(=O)c1ccc(C2=CCN(Cc3cnc4cc(C(F)(F)F)c(=O)[nH]c4c3)CC2)cn1",
    "display.unit": "nM",
    "IC50": 2.7
  },
  {
    "compound": "CCc1cc2ncc(CN3CC=C(c4ccc(C(=O)NC)c(F)c4Cl)CC3)cc2[nH]c1=O",
    "display.unit": "nM",
    "IC50": 2.2
  }
]

Now consider a different compound.
Entry CCc1cc2ncc(CN3CC=C(c4ccc(C(=O)NC)c(F)c4F)CC3)cc2[nH]c1=O under PARP1 enzyme (Homo sapiens (Human), UniProt P09874) had IC50 of 2.1

* * *

- protocol.description: in vivo
- details: male, Balb/C, mouse, po, 1 mg/kg
measured.attribute: Tmax

[
  {
    "chemical.structure": "CCc1cc2ncc(CN3CC=C(c4ccc(C(=O)NC)nc4C#N)CC3)cc2[nH]c1=O",
    "Tmax": "30 min"
  }
]

The recorded Tmax for CNC(=O)c1ccc(C2=CCN(Cc3cnc4cc(C5CC5)c(=O)[nH]c4c3)CC2)cn1 is 60 min

* * *

- protocol.description: Bidirectional permeability through Caco-2 cell model
- details: human
Doc: threshold 20 ×10⁻⁶ cm/s (exclusive). Items with Papp B→A at 2 h, 10 μM beneath it return True; others return False.

## Input Please determine if CCc1cc2ncc(CN3CC=C(c4ccc(C(=O)NC5CC5)nc4)CC3)cc2[nH]c1=O is below 20 ×10⁻⁶ cm/s in terms of Papp B→A at 2 h, 10 μM.
## Output True

## Input hey, is Papp B→A at 2 h, 10 μM for CCc1cc2ncc(CN3CCN(c4cnc5c(NC)nc(C)cc5c4)CC3)cc2[nH]c1=O lower than 20 ×10⁻⁶ cm/s or not?
## Output True

## Input I'd appreciate it if you could check whether CCc1cc2ncc(CN3CC=C(c4ccc(C(=O)NC)nc4)CC3)cc2[nH]c1=O has Papp B→A at 2 h, 10 μM smaller than 20 ×10⁻⁶ cm/s.
## Output True

* * *

- protocol.description: PK part of PK/PD study in MDA-MB-436 subcutaneous xenograft model: plasma and tumor concentration
- Assay type: in vivo, BALB/c nude mice
- details: female, BALB/c nude, mouse, plasma; single oral 0.3 mg/kg, 2 h; read-out: Mean plasma concentration
measured.attribute: concentration at 2 h
Respond with the figure and its unit, in that order.

Record CCc1cc2ncc(CN3CCN(c4ccc(C(=O)NC)nc4)CC3)cc2[nH]c1=O [AZD5305, reference compound] , field concentration at 2 h: 1370 ng/mL

* * *

- protocol.description: PK part of PK/PD study in MDA-MB-436 subcutaneous xenograft model: plasma and tumor concentration
- Format: in vivo, BALB/c nude mice
- details: female, BALB/c nude, mouse, tumor tissue; single oral 0.3 mg/kg, 1 h; read-out: Mean tumor tissue concentration
measured.attribute: concentration at 1 h (ng/g)
Give your result in ng/g as a bare value.

concentration at 1 h in this record for CCc1cc2ncc(CN3CCN(c4ccc(C(=O)NC)nc4)CC3)cc2[nH]c1=O [AZD5305, reference compound] : 41

* * *

Entries and their IC50 values follow.
- Tested on: BRCA2 Knockout DLD-1 cells
- protocol.description: Inhibition of proliferation of BRCA2 Knockout DLD-1 cells (CellTiter-Glo)
- Assay type: cell-based
- details: Homo sapiens, about 144 hours incubation
Just the number please, in nM, no unit attached.

Field: example entries. Status: answers known.
[
  {
    "compound": "CCc1cc2ncc(CN3CC=C(c4ccc(C(=O)NC)nc4)CC3)cc2[nH]c1=O [Example 1]",
    "tested.on": "BRCA2 Knockout DLD-1 cells",
    "IC50 (nM)": 1.2
  },
  {
    "compound": "CCc1cc2c(C#N)cc(CN3CC=C(c4ccc(C(=O)NC)nc4)CC3)cc2[nH]c1=O [Example 42]",
    "tested.on": "BRCA2 Knockout DLD-1 cells",
    "IC50 (nM)": 3
  },
  {
    "compound": "CCc1cc2ncc(CN3CC=C(c4ccc(C(=O)NC5CC5)nc4)CC3)cc2[nH]c1=O [Example 29]",
    "tested.on": "BRCA2 Knockout DLD-1 cells",
    "IC50 (nM)": 1.9
  }
]

Alright, here's another compound for you.
Just so you know, measured IC50 for CCc1cc2ncc(CN3CC=C(c4cnc5c(NC)nccc5c4)CC3)cc2[nH]c1=O [Example 102] came out at 5.2
